- testDetails: in vivo
- Design: species or system rats
- measurementParameters: rat, 20 mg/kg
- Source text: Samples were taken from the portal vein (PV) and jugular vena cava (JVC) in rats that were either pre-treated with or naïve to cysteamine therapy. The portal vein delivers blood, and therefore drug, directly to the liver where it diffuses into the periportal region. The concentration of drug in the periportal region is therefore at a maximum level and is higher than the drug concentration in the hepatic lobular region (which drains into the hepatic central veins and then into the JVC). […]
endpoint: Tmax

Prompt: Which measured Tmax value corresponds to NCCS ?
Completion: 5 to 10 min
